Target: IN-GCN2 interaction (6xHis-IN / GST-GCN2) (UniProt P04585+Q9P2K8)
Sequence (Q9P2K8 192-1024, other chains not shown): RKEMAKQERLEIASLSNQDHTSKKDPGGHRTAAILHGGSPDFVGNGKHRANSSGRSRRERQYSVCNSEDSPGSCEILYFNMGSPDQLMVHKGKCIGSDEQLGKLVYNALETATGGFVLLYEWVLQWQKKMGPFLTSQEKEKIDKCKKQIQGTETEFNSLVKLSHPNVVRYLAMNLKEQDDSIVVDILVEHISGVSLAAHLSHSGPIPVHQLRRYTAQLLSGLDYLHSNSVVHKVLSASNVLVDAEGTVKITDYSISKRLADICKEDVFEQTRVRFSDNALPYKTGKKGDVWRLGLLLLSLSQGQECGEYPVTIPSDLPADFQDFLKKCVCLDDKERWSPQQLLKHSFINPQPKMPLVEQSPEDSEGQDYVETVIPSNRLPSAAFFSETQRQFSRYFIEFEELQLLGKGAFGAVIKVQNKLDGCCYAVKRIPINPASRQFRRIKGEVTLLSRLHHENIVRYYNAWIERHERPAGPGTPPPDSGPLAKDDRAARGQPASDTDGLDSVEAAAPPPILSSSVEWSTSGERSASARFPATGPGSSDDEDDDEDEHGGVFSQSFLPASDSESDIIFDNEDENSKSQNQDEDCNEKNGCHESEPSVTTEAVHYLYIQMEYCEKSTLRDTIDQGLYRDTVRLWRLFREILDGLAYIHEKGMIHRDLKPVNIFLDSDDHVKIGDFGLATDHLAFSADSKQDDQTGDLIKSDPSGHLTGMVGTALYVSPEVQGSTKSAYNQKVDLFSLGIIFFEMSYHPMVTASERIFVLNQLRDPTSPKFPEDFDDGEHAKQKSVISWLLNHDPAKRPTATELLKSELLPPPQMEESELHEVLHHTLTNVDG
Assay: biochemical
Format: binding, HIV-1 IN; human GCN2
Conditions: screen, single dose 100 µM, single replicate; residual AlphaLISA signal normalized to DMSO control
// IN-GCN2 interaction (%) lookup, one value per entry
State the answer as a number, implicitly in %.

1) COC(=O)c1nc(-c2ccc3c(n2)C(=O)C(N)=C(OC)C3=O)c(N)c(-c2ccc(OC)c(OC)c2O)c1C = 82.84
2) O=P1(N(CCCl)CCCl)NCCCO1 (stereo not shown) = 117.66
3) CCCCCc1cc(O)cc2c1Oc1cc(O)cc(C(=O)CCCC)c1C(=O)O2 = 101.08
4) C=C1C(=O)O[C@H]2[C@H]1CC/C(C)=C/CC[C@@]1(C)O[C@@H]21 = 97.44
5) COc1cc2c3c(c1O)-c1cc(O)ccc1CC3N(C)CC2 (stereo not shown) = 59.88
6) Cc1ccc(S(=O)(=O)NNC(=O)c2cc(C)c(C)cc2N)cc1 = 88.25

Ask: Short answer please: IN-GCN2 interaction (%), IN-GCN2 interaction (6xHis-IN / GST-GCN2) (UniProt P04585+Q9P2K8), entry C=C1C(=O)O[C@H]2C[C@@]3(C)O[C@@H]3CC/C(C)=C/[C@@H](OC(C)=O)[C@H]12
Result: 135.82

Ask: Now the compound COc1cc2c(cc1O)[C@@H](Cc1ccc(Oc3cc(C[C@H]4c5cc(O)c(OC)cc5CCN4C)ccc3OC)cc1)N(C)CC2
Result: 47.22

Ask: Now the compound COC(=O)CC[C@@H](C)[C@H]1CC[C@@]2(C)[C@@H]3C(=O)C[C@H]4C(C)(C)[C@@H](OC(C)=O)CC[C@]4(C)[C@H]3C(=O)C[C@]12C
Result: 97.47

Ask: Now the compound CC1=CC(=O)C2=C(C)CCC3C(C)C(=O)OC3C12 (stereo not shown)
Result: 75.72

meta.source: paper PMC12390684
